# subjectOfTest: NACHT, LRR and PYD domains-containing protein 3 (Mus musculus)
# Sequence (Q8R4B8 whole entry, the tested form may be a part): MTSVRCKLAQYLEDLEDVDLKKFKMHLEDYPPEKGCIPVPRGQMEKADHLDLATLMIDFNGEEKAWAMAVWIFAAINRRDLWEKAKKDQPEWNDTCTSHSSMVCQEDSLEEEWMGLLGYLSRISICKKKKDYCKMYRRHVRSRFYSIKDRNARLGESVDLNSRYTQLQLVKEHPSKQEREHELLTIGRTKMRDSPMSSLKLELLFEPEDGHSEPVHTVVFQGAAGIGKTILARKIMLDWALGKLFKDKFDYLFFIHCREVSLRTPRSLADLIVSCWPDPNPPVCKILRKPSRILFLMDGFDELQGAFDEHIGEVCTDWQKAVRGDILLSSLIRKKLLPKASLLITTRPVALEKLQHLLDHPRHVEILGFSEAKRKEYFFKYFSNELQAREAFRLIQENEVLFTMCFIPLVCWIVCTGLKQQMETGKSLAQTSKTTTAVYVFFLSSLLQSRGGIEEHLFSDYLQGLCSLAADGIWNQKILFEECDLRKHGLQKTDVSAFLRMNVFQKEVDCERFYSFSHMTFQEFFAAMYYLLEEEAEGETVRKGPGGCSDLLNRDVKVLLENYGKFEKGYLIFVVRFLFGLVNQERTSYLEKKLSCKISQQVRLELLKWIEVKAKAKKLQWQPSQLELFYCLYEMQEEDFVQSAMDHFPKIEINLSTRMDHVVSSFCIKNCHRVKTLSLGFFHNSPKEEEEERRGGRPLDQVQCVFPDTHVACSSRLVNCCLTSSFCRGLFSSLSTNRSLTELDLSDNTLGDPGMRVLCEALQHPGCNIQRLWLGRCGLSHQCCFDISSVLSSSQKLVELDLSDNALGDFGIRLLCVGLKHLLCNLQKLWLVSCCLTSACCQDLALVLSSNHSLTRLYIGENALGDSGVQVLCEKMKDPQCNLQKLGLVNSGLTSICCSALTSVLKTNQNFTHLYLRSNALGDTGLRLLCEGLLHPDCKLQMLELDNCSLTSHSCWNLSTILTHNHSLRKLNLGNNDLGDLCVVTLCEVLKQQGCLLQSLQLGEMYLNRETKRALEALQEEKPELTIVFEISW
# testMethodNotes: Inhibition of NLRP3 inflammasome in LPS-primed mouse J774.A1 cells assessed as reduction in IL-1beta secretion preincubated for 30 mins followed by ATP addition and measured after 30 mins by ELISA
# Type: cell-based
observedProperty: IC50 (µM)

Solved cases below.
{"columns": ["structureNotation", "subjectOfTest", "observedMeasurement"],
 "data": [
  ["CCCOc1ccc(Cl)cc1CN(CCc1ccc(S(=O)(=O)NCC(C)(C)C)cc1)C(=O)Cc1ccsc1", "NACHT, LRR and PYD domains-containing protein 3 (Mus musculus)", 0.66],
  ["C#CCNS(=O)(=O)c1ccc(CCN(Cc2cc(Cl)ccc2OCCC)C(=O)CCCc2ccsc2)cc1", "NACHT, LRR and PYD domains-containing protein 3 (Mus musculus)", 1.17],
  ["C#CCNS(=O)(=O)c1ccc(CCN(Cc2cc(Cl)ccc2OCCC)C(=O)c2csc3c2CCCC3)cc1", "NACHT, LRR and PYD domains-containing protein 3 (Mus musculus)", 0.51],
  ["C#CCNS(=O)(=O)c1ccc(CCN(Cc2ccsc2)Cc2cc(Cl)ccc2OCCC)cc1", "NACHT, LRR and PYD domains-containing protein 3 (Mus musculus)", 0.75],
  ["C#CCNS(=O)(=O)c1ccc(CCN(Cc2cc(Cl)ccc2N)C(=O)Cc2ccsc2)cc1", "NACHT, LRR and PYD domains-containing protein 3 (Mus musculus)", 1.13]
]}

a. C#CCS(=O)(=O)c1ccc(CCN(Cc2cc(Cl)ccc2OCCC)C(=O)c2csc3ccccc23)cc1
b. C#CCNS(=O)(=O)c1ccc(CCN(Cc2cccc3c2OCO3)C(=O)c2ccc(F)cc2)cc1
c. C#CCNS(=O)(=O)c1ccc(CCN(Cc2cc(Cl)ccc2OCCC)C(=O)c2csc3ccccc23)cc1
d. C#CCNS(=O)(=O)c1ccc(CCN(Cc2cc(Cl)ccc2[N+](=O)[O-])C(=O)Cc2ccsc2)cc1
Hello, I need these entries ordered by IC50, highest reading first. Thanks! Sort the labels as requested; that list is your answer.
b, a, d, c

----------
# subjectOfTest: Interferon-inducible protein AIM2 (Mus musculus)
# testMethodNotes: Inhibition of AIM2 inflammasome in LPS-primed mouse J774.A1 cells assessed as IL-1beta secretion at 10 uM preincubated for 1 hr followed by poly(dA:dT) addition and measured after 4 hrs by ELISA relative to control
# Type: cell-based
# Design: scale not given: the % may be the effect or the level left
# conditionContext: time 5.0 hrs
observedProperty: Activity (%)

Solved cases below.
{"columns": ["structureNotation", "observedProperty", "observedMeasurement"],
 "data": [
  ["C#CCNS(=O)(=O)c1ccc(CCN(Cc2ccccc2OCCC)C(=O)Cc2ccsc2)cc1", "Activity", 61.4],
  ["C#CCNS(=O)(=O)c1ccc(CCN(Cc2cc(Cl)ccc2O)C(=O)Cc2ccsc2)cc1", "Activity", 47.3],
  ["C#CCNS(=O)(=O)c1ccc(CCN(Cc2cc(Cl)ccc2[N+](=O)[O-])C(=O)Cc2ccsc2)cc1", "Activity", 82.7]
]}

a. C#CCNS(=O)(=O)c1ccc(CCN(Cc2ccsc2)Cc2cc(Cl)ccc2OCCC)cc1
b. C#CCNS(=O)(=O)c1ccc(CCN(Cc2cc(Cl)ccc2OCCC)C(=O)c2csc3ccccc23)cc1
Of the pair a and b , name the member with the lesser recorded Activity. Give the chosen item's label as your response.
a

All values here come from ChEMBL document CHEMBL5137033.
